Assign IC50 to each entry below.
- tested.system: glucosylceramide synthase (GCS) (Canis lupus familiaris, UniProt A0A8I3MXG6)
- Construct: endogenous in cells
- Sequence (A0A8I3MXG6 1-394): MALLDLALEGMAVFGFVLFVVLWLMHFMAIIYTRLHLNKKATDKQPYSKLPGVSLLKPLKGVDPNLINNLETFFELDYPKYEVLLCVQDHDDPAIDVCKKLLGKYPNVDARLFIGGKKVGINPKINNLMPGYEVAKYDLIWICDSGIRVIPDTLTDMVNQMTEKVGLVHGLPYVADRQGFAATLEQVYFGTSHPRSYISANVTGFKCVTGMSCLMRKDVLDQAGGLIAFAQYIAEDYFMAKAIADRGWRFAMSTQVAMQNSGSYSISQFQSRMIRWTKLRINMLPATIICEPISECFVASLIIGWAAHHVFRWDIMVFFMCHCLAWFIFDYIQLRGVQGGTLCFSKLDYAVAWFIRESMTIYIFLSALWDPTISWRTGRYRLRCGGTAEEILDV
- measurement.notes: GCS inhibition in MDCK cell homogenates (Lysate IC50)
- condition.label: MDCK cell homogenate
Answers are plain numbers, in nM.

CC(C)(C)Oc1ccc([C@@H](O)[C@@H](CN2CCCC2)NC(=O)CC2Cc3ccccc3C2)nc1 [Example 17] ... 11.3
COc1ccnc([C@@H](O)[C@@H](CN2CCCC2)NC(=O)CC2Cc3ccccc3C2)c1 ... 24900
COc1cc([C@@H](O)[C@@H](CN2CCCC2)NC(=O)CC2Cc3ccccc3C2)ccn1 ... 56

// for each molecule in input: emit IC50
1. CC(C)(C)Oc1ccc([C@@H](O)[C@@H](CN2CCCC2)NC(=O)CC2Cc3ccc(F)cc3C2)nc1 (some centres unmarked)
2. CC(C)(C)Oc1ccc([C@@H](O)[C@@H](CN2CCCC2)NC(=O)CC2Cc3ccccc3C2)nc1 [Example 7]
3. O=C(CC1Cc2ccccc2C1)N[C@H](CN1CCCC1)[C@H](O)c1ccccn1

[A]
[568, 16.3, 152]

---

- tested.system: glucosylceramide synthase (GCS) (Canis lupus familiaris, UniProt A0A8I3MXG6)
- Construct: endogenous in cells
- measurement.notes: GCS inhibition in MDCK cell homogenates (Lysate IC50)
- condition.label: MDCK cell homogenate
measured.metric: IC50

Example cases with answers are listed next.
COc1cccnc1[C@@H](O)[C@@H](CN1CCCC1)NC(=O)CC1Cc2ccccc2C1 ... > 2000 nM
COc1ccc([C@@H](O)[C@@H](CN2CCC(C)(C)C2)NC(=O)CC2Cc3ccccc3C2)nc1 ... > 2000 nM
COc1cncc([C@@H](O)[C@@H](CN2CCCC2)NC(=O)CC2Cc3ccccc3C2)c1 ... > 5000 nM
CC(C)(C)Oc1ccc([C@H](O)[C@H](CN2CCCC2)NC(=O)CC2Cc3ccccc3C2)nc1 ... > 2000 nM

Turning now to a further record.
[Q] Return reported IC50. Input compound: O=C(CC1Cc2ccccc2C1)N[C@@H](CN1CCCC1)[C@@H](O)c1cc(Cl)ccn1 (stereo in doubt)
[A] > 2000 nM
